Quick list: IC50 per entry.
# target_desc: KRAS G12C (Homo sapiens, UniProt P01116+P62937, G12C)
# Sequence (P01116 1-169 isoform P01116-2 G12C): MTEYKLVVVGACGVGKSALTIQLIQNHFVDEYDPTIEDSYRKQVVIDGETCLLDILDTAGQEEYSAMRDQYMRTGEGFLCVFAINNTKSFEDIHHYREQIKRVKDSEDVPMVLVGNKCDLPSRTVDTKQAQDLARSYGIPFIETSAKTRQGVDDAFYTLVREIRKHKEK
# Sequence (P62937 whole entry): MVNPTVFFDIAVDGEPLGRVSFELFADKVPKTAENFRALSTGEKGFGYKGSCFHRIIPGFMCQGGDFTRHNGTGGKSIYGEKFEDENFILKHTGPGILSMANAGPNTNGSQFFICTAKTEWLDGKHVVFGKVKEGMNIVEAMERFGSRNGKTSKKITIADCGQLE
# experiment_notes: Disruption of BRAF RBD interaction with Ras (FRET / MOA assay, with Cyclophilin A)
# Assay type: biochemical
# condition_summary: read-out: KRAS G12C FRET data, IC50

compound	IC50
CCn1c(-c2cnccc2COC)c2c3cc(ccc31)-c1cc(O)cc(c1)C[C@H](NC(=O)[C@H](C(C)C)N1CCCCC1=O)C(=O)N1CCC[C@H](N1)C(=O)OCC(C)(C)C2	100 to 1000 nM
CCn1c(-c2cccnc2[C@H](C)OC)c2c3cc(ccc31)-c1cc(O)cc(c1)C[C@H](NC(=O)[C@H](C(C)C)N(C)C(=O)[C@H]1C[C@H]1C)C(=O)N1CCC[C@H](N1)C(=O)OCC(C)(C)C2	10 to 100 nM
CCn1c(-c2cccnc2[C@H](C)OC)c2c3cc(ccc31)-c1csc(n1)C[C@H](NC(=O)[C@H](C(C)C)N(C)C(=O)N1CC[C@]13CCCN(C)C3)C(=O)N1CCC[C@H](N1)C(=O)OCC(C)(C)C2	1000 to 10000 nM
CCC(=O)N1CC[C@H](C(=O)N(C)[C@H](C(=O)N[C@H]2Cc3cc(O)cc(c3)-c3ccc4c(c3)c(c(-c3ccccc3CCOC)n4CC)CC(C)(C)COC(=O)[C@@H]3CCCN(N3)C2=O)C(C)C)C1	100 to 1000 nM
CCn1c(-c2cccnc2[C@H](C)OC)c2c3cc(ccc31)-c1csc(n1)C[C@H](NC(=O)[C@H](C(C)C)N(C)C(=O)N1CC[C@]3(CCN(C)C3=O)C1)C(=O)N1CCC[C@H](N1)C(=O)OCC(C)(C)C2 (single isomer, unassigned)	100 to 1000 nM
CCN(C(=O)N(C)[C@H](C(=O)N[C@H]1Cc2nc(cs2)-c2ccc3c(c2)c(c(-c2cccnc2[C@H](C)OC)n3CC)CC(C)(C)COC(=O)[C@@H]2CCCN(N2)C1=O)C(C)C)C(C)C	10 to 100 nM
CCn1c(-c2cc(C3CCN(C)CC3)cnc2[C@H](C)OC)c2c3cc(ccc31)-c1csc(n1)C[C@H](NC(=O)[C@H](C(C)C)N(C)C(=O)N(C)C)C(=O)N1CCC[C@H](N1)C(=O)OCC(C)(C)C2 (atropisomer, axis not shown)	10 to 100 nM
C=C[C@@H]1C[C@]1(N)C(=O)N(C)[C@H](C(=O)N[C@H]1Cc2cc(O)cc(c2)-c2ccc3c(c2)c(c(-c2cccnc2[C@H](C)OC)n3CC)CC(C)(C)COC(=O)[C@@H]2CCCN(N2)C1=O)C(C)C	10 to 100 nM
CCn1c(-c2cccnc2[C@H](C)OC)c2c3cc(ccc31)-c1csc(n1)C[C@H](NC(=O)[C@H](C(C)C)N(C)C(=O)N1CCN3CCOC[C@@H]3C1)C(=O)N1CCC[C@H](N1)C(=O)OCC(C)(C)C2	100 to 1000 nM
